# reported IC50; entries follow
Biological target: human CRTH2 (Homo sapiens)
Construct: expressed in transfected cells; host or cells: L1.2 cells, pEAK expression vector, puromycin-selected
Sequence (Q9Y5Y4 1-395): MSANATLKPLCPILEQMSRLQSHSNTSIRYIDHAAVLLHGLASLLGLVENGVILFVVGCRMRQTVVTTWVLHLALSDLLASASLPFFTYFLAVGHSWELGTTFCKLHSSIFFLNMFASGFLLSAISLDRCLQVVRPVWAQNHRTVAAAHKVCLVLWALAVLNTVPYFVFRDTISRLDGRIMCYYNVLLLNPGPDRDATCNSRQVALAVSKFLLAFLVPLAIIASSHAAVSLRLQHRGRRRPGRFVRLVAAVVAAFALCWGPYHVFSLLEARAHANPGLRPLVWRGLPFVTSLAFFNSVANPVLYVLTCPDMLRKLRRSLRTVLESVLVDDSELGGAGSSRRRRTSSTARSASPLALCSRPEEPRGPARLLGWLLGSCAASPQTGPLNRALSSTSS
Experiment: Measurement of Ca2+ mobilization in the human CRTH2-transfected L1.2 cell line (Assay 1)
Assay type: cell-based
Conditions: PGD2-induced Ca2+ mobilization in CRTH2-transfected L1.2 cells; compounds as yielded by solid phase synthesis, purity about 40 to 90%; read-out: Activity class

Previously resolved entries follow.
# get_value(readout= IC50, system= human CRTH2 (Homo sapiens)) for CN(C)c1nc(Cc2ccc(NC(=O)/C=C/c3ccc(C(F)(F)F)cc3)cc2)nc(Cl)c1CC(=O)O < 10 nM

Form: Entry = CN(C)c1nc(Cc2ccc(NC(=O)c3ccc(Br)cc3)cc2)ncc1CC(=O)O | System = human CRTH2 (Homo sapiens) | IC50 = ____ < 10 nM

Give recorded IC50 with human CRTH2 (Homo sapiens) for the following compound: COc1ccc(C(=O)Nc2ccc(Cc3nc(Cl)c(CC(=O)O)c(N4CCCC4)n3)cc2)cc1[N+](=O)[O-] < 10 nM

Recall the recorded IC50 for CN(C)c1nc(Cc2ccc(NC(=O)c3cccc(Cl)c3Cl)cc2)nc(Cl)c1CC(=O)O with human CRTH2 (Homo sapiens) and state it. 100 to 500 nM

More entries:
Lab request: please report IC50 under test system human CRTH2 (Homo sapiens) for CC(C)(C)CC(=O)Nc1ccc(Cc2ncc(CC(=O)O)c(N3CCCC3)n2)cc1 10 to 100 nM

Return IC50 measured with human CRTH2 (Homo sapiens) given this compound: Cc1nc(Cc2ccc(NC(=O)c3ccc(Cl)c(Cl)c3)cc2)nc(N(C)C)c1CC(=O)O < 10 nM

Kindly state the measured IC50 obtained for CN(CC(=O)NC1CCCC1)c1nc(Cc2ccc(NCc3ccccc3)cc2)nc(Cl)c1CC(=O)O with human CRTH2 (Homo sapiens). > 500 nM

Record CN(CC(=O)NC1CCCC1)c1nc(Cc2ccc(NCc3ccc4ccccc4c3)cc2)nc(Cl)c1CC(=O)O : what is its IC50 with human CRTH2 (Homo sapiens)? 100 to 500 nM
